# measured on: PRMT5/MEP50 (Homo sapiens, UniProt O14744)
# Construct: Flag-PRMT5; made in house; host or cells: Spodoptera frugiperda (SF9) insect cells, baculovirus (pDEST8)
# Sequence (O14744 with tags, fused parts or gaps): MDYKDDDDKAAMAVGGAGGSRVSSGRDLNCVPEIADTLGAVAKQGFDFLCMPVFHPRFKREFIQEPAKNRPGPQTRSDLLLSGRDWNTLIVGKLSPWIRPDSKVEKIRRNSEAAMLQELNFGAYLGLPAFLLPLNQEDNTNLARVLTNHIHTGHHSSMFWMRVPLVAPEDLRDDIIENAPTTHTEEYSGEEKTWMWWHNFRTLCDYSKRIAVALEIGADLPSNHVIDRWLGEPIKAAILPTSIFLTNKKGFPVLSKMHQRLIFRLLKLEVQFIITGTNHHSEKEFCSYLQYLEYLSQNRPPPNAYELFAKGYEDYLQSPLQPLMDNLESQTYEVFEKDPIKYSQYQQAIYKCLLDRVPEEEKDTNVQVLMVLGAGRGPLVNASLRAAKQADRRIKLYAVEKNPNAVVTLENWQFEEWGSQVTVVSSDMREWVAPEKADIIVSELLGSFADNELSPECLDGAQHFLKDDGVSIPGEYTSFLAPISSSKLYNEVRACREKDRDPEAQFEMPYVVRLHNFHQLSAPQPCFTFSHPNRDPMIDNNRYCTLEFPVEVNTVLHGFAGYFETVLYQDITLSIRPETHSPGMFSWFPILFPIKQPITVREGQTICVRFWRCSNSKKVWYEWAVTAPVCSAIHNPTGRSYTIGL
# Sequence (Q9BQA1 with tags, fused parts or gaps partner limits assumed): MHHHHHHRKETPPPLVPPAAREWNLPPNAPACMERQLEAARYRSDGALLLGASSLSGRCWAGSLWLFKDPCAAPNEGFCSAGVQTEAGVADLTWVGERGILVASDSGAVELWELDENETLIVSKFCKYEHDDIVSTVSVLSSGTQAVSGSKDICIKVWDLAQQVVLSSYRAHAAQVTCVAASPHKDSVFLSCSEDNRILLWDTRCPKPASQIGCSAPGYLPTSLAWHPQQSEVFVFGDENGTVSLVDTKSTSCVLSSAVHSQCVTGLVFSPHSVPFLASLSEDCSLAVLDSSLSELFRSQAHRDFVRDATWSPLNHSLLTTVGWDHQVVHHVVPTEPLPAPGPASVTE
# procedure summary: PRMT5 Biochemical Assay (PRMT5/MEP50 enzyme assay on peptide substrate, 3H-SAM Flashplate)
# study conditions: PRMT5/MEP50 4 nM, 3H-SAM 75 nM, peptide 40 nM, 30 min preincubation at 25 degrees Celsius
# Text: S-adenosylmethionine (SAM), S-adenosylhomocysteine (SAH), bicine, KCl, Tween20, dimethylsulfoxide (DMSO), bovine skin gelatin (BSG), and Tris(2-carboxyethyl)phosphine hydrochloride solution (TCEP) were purchased from Sigma-Aldrich at the highest level of purity possible. ^3H-SAM was purchase from American Radiolabeled Chemicals with a specific activity of 80 Ci/mmol. 384-well streptavidin Flashplates were purchased from PerkinElmer. […]
quantity name: IC50

Some solved cases for reference:
| molecule | IC50 |
| --- | --- |
| CC(=O)N1CCC(Nc2cc(C(=O)NC[C@H](O)CN3CCc4nc(C)sc4C3)ccn2)CC1 | 1 to 10 µM |
| OC(COc1cccc(CNC2CCCC2)c1)CN1CCc2cnccc2C1 (stereo not shown) | > 50 µM |
| CC(=O)N1CCC(Nc2cc(C(=O)NC[C@H](O)CN3CCc4nn(C)cc4C3)ncn2)CC1 | > 10 µM |
| OC(COc1cccc(CNC2CCCC2)c1)CN1CCc2[nH]cnc2C1 (stereo not shown) | > 50 µM |
| Cn1cnc2ccc(-c3cccc(OCC(O)CN4CCc5ncccc5C4)c3)cc21 (stereo not shown) | 10 to 50 µM |
| Cn1ncc2c1CCN(C[C@H](O)COc1cccc(-c3ccc4ncn(C)c4c3)c1)C2 | > 50 µM |

Q: Quick check: IC50 of CC(=O)N1CCC(Nc2cc(C(=O)NC[C@H](O)CN3CCc4cn[nH]c4C3)ccn2)CC1 ?
Ans: > 10 µM

====

# Test system: Z-138 cell line
# procedure summary: Z-138 Proliferation Assay (Cell Titer Glo)
# Format: cell-based
# study conditions: Homo sapiens, 120 h; Z-138 cells, 5 days incubation, ATP (Cell Titer Glo)
Consider the following molecules and their measured EC50 readings.

Some solved cases for reference:
| molecule | quantity name | result |
| --- | --- | --- |
| CC(=O)N1CCC(Nc2cc(C(=O)NC[C@H](O)CN3CCc4ncsc4C3)ccn2)CC1 | EC50 | > 5 µM |
| CC(=O)N1CCC(Nc2cc(C(=O)NC[C@H](O)CN3CCCc4c3cnn4C)ncn2)CC1 | EC50 | > 5 µM |
| O=C(NC[C@H](O)CN1CCc2cn[nH]c2C1)c1cc(NC2COC2)ncn1 | EC50 | > 5 µM |
| O=C(NC[C@H](O)CN1CCc2sccc2C1)c1cc(NC2COC2)ncn1 | EC50 | 1 to 10 µM |
| CC(=O)N1CCC(Nc2cc(C(=O)NC[C@H](O)CN3CCc4oc(C)nc4C3)ncn2)CC1 | EC50 | > 5 µM |

Q: Quick check: EC50 of CC(=O)N1CC(Nc2cc(C(=O)NC[C@H](O)CN3CCc4ccncc4C3)ncn2)C1 ?
Ans: > 5 µM

====

# measured on: PRMT5/MEP50 (Homo sapiens)
# Construct: Flag-PRMT5; made in house; host or cells: Spodoptera frugiperda (SF9) insect cells, baculovirus (pDEST8)
# procedure summary: PRMT5 Biochemical Assay (PRMT5/MEP50 enzyme assay on peptide substrate, 3H-SAM Flashplate)
# study conditions: PRMT5/MEP50 4 nM, 3H-SAM 75 nM, peptide 40 nM, 30 min preincubation at 25 degrees Celsius
pIC50: −log10 of the molar value.
quantity name: pIC50

| compound | measured on | pIC50 |
| --- | --- | --- |
| O=C(NC[C@H](O)CN1CCc2cnccc2C1)c1cc(NC2COC2)ncn1 | PRMT5/MEP50 (Homo sapiens) | 5.00 to 6.00 |

Please examine the following record next.
Q: Quick check: pIC50 of CC(=O)N1CCC(Nc2cc(C(=O)NC[C@H](O)CN3CCc4oc(C)nc4C3)ncn2)CC1 ?
Ans: < 5.00

====

# Test system: Z-138 cell line
# procedure summary: Z-138 Proliferation Assay (Cell Titer Glo)
# Assay type: cell-based
# study conditions: Homo sapiens, 120 h; Z-138 cells, 5 days incubation, ATP (Cell Titer Glo)
pEC50: −log10 of the molar value.
quantity name: pEC50

| compound | measured on | pEC50 |
| --- | --- | --- |
| CC(=O)N1CCC(Nc2cc(C(=O)NC[C@H](O)CN3CCc4c(ncn4C)C3)ccn2)CC1 | Z-138 cell line | < 5.30 |
| O=C(COc1cccc2cccnc12)NCC(O)CN1CCc2ccsc2C1 (centres unmarked) | Z-138 cell line | < 5.30 |
| Cn1cnc2c1CN(C[C@@H](O)CNC(=O)c1cc(NC3COC3)ncn1)CC2 | Z-138 cell line | < 5.30 |
| CC(=O)N1CCC(Nc2cc(C(=O)NC[C@H](O)CN3CCc4[nH]ncc4C3)ccn2)CC1 | Z-138 cell line | < 5.30 |
| CC(=O)N1CCC(Nc2cc(C(=O)NC[C@H](O)CN3CCc4sc(N)nc4C3)ncn2)CC1 | Z-138 cell line | < 5.30 |

Q: Quick check: pEC50 of CC(=O)N1CCC(Nc2cc(C(=O)NC[C@H](O)CN3CCc4ncccc4C3)ncn2)CC1 ?
Ans: 5.00 to 6.00

Q: Quick check: pEC50 of Nc1nc2c(s1)CN(C[C@@H](O)CNC(=O)c1cc(NC3COC3)ncn1)CC2 ?
Ans: < 5.30

Q: Quick check: pEC50 of CC(=O)N1CCC(Nc2cc(C(=O)NC[C@H](O)CN3CCc4oc(C)nc4C3)ccn2)CC1 ?
Ans: < 5.30

Q: Quick check: pEC50 of CC(=O)N1CCC(Nc2cc(C(=O)NC[C@H](O)CN3CCc4sccc4C3)ncn2)CC1 ?
Ans: 6.00 to 7.00

Q: Quick check: pEC50 of CC(=O)N1CCC(Nc2cc(C(=O)NC[C@H](O)CN3CCc4ncsc4C3)ncn2)CC1 ?
Ans: < 5.30

====

Consider the following molecules and their measured IC50 readings.
# measured on: PRMT5/MEP50 (Homo sapiens, UniProt O14744)
# Construct: Flag-PRMT5; made in house; host or cells: Spodoptera frugiperda (SF9) insect cells, baculovirus (pDEST8)
# procedure summary: PRMT5 Biochemical Assay (PRMT5/MEP50 enzyme assay on peptide substrate, 3H-SAM Flashplate)
# study conditions: PRMT5/MEP50 4 nM, 3H-SAM 75 nM, peptide 40 nM, 30 min preincubation at 25 degrees Celsius

| molecule | IC50 |
| --- | --- |
| O=C(COc1cccc2cccnc12)NCC(O)CN1CCc2sccc2C1 (stereo not shown) | < 0.1 µM |

Q: Quick check: IC50 of CC(=O)N1CC(Nc2cc(C(=O)NC[C@H](O)CN3CCc4cn(C)nc4C3)ncn2)C1 ?
Ans: > 10 µM

Q: Quick check: IC50 of Cn1cnc2c1CCN(C[C@@H](O)COc1cccc(CNC3CCCC3)c1)C2 ?
Ans: > 50 µM

Q: Quick check: IC50 of CC(=O)N1CCC(Nc2cc(C(=O)NC[C@H](O)CN3CCc4[nH]ncc4C3)ccn2)CC1 ?
Ans: 1 to 10 µM

Q: Quick check: IC50 of O=C(NC[C@H](O)CN1CCc2ncsc2C1)c1cc(NC2COC2)ncn1 ?
Ans: > 10 µM

Q: Quick check: IC50 of CC(=O)N1CC(Nc2cc(C(=O)NC[C@H](O)CN3CCc4scnc4C3)ncn2)C1 ?
Ans: > 10 µM

Q: Quick check: IC50 of OC(COc1cccc(CNC2CCCC2)c1)CN1CCc2ncccc2C1 (stereo not shown) ?
Ans: > 50 µM

Q: Quick check: IC50 of CC(=O)N1CC(Nc2cc(C(=O)NC[C@H](O)CN3CCc4c(C)csc4C3)ncn2)C1 ?
Ans: 0.101 to 1 µM

====

# Test system: Z-138 cell line
# procedure summary: Z-138 Proliferation Assay (Cell Titer Glo)
# Assay type: cell-based
# study conditions: Homo sapiens, 120 h; Z-138 cells, 5 days incubation, ATP (Cell Titer Glo)
Consider the following compounds and their measured EC50 readings.

Some solved cases for reference:
| compound | measured on | result |
| --- | --- | --- |
| CC(=O)N1CC(Nc2cc(C(=O)NC[C@H](O)CN3CCc4sc(C)nc4C3)ncn2)C1 [Compound 1-27] | Z-138 cell line | > 5 µM |
| CC(=O)N1CC(Nc2cc(C(=O)NC[C@H](O)CN3CCc4ncsc4C3)ncn2)C1 [Compound 1-17] | Z-138 cell line | > 5 µM |
| CC(=O)N1CCC(Nc2cc(C(=O)NC[C@H](O)CN3CCc4cn[nH]c4C3)ccn2)CC1 [Compound 3-50] | Z-138 cell line | > 5 µM |
| CC(=O)N1CC(Nc2cc(C(=O)NC[C@H](O)CN3CCc4cnccc4C3)ncn2)C1 [Compound 2-16] | Z-138 cell line | > 5 µM |
| OC(COc1cccc(CNC2CCCC2)c1)CN1CCc2[nH]nc(-c3ccccc3)c2C1 (stereo not shown) [Compound 3-9] | Z-138 cell line | 10 to 50 µM |

Q: Quick check: EC50 of CC(=O)N1CC(Nc2cc(C(=O)NC[C@H](O)CN3CCc4[nH]ncc4C3)ncn2)C1 [Compound 3-23] ?
Ans: > 5 µM

Q: Quick check: EC50 of Cc1csc2c1CN(C[C@@H](O)CNC(=O)c1cc(NC3COC3)ncn1)CC2 [Compound 1-11] ?
Ans: 1 to 10 µM

Q: Quick check: EC50 of O=C(COc1cccc2cccnc12)NCC(O)CN1CCc2ccncc2C1 (stereo not shown) [Compound 2-8] ?
Ans: > 5 µM

Q: Quick check: EC50 of CC(=O)N1CC(Nc2cc(C(=O)NC[C@H](O)CN3CCc4cccnc4C3)ncn2)C1 [Compound 2-13] ?
Ans: 1 to 10 µM

Q: Quick check: EC50 of CC(=O)N1CCC(Nc2cc(C(=O)NC[C@H](O)CN3CCc4sc(N)nc4C3)ccn2)CC1 [Compound 1-34] ?
Ans: > 5 µM

Q: Quick check: EC50 of CC(=O)N1CCC(Nc2cc(C(=O)NC[C@H](O)CN3CCc4ncccc4C3)ccn2)CC1 [Compound 2-20] ?
Ans: > 5 µM

Q: Quick check: EC50 of CC(=O)N1CCC(Nc2cc(C(=O)NC[C@H](O)CN3CCc4ncn(C)c4C3)ccn2)CC1 [Compound 3-24] ?
Ans: > 5 µM

Q: Quick check: EC50 of CC(=O)N1CC(Nc2cc(C(=O)NC[C@H](O)CN3CCc4sc(N)nc4C3)ncn2)C1 [Compound 1-28] ?
Ans: > 5 µM
